Examples of molecules with documented GI50 follow.
Tested on: SF-295
Assay: NCI tumour cell line growth inhibition, 48 h
Active and inactive are the calls of the source. No stated cut-off is given here; in the data, active = GI50 up to about 1.1 µM and inactive = higher.

Please review the following examples before continuing.
> print(dat)
                                   molecule  experimental.value
1  CN(C)CC1CC/C(=C\c2ccc3c(c2)OCO3)C1=O (stereo not given)  23.1 µM (inactive)
2  CC1=C(CO)C(=O)OC(C(C)C2CCC3C4CC5OC56C(O)C(N5CC5)=CC(=O)C6(C)C4CCC23C)C1 (stereo not given)  16.5 µM (inactive)
3  CC(C)Cc1ccc(C(C)/C=C2\CCC(CN3CCCC3)C2=O)cc1 (stereo not given)  16.9 µM (inactive)
4  CCC12CCCN(Cc3ccccc3)C1c1c(n(C)c3ccccc13)C(CO)C2 (stereo not given)  26.9 µM (inactive)
5  COc1ccc2c(c1)CC[C@@H]1[C@@H]2CC[C@]2(C)C(=O)/C(=C/c3ccc(C#N)cc3)C[C@@H]12  81.3 µM (inactive)

Just so you know, measured GI50 for O=C(CCc1cc(-c2ccc(F)cc2)n[nH]1)N(Cc1ccccc1)Cc1ccccc1 came out at > 100 µM (inactive)

Just so you know, measured GI50 for FC(F)(F)c1ccc2nc(Sc3ccc4ccccc4c3)cnc2c1 came out at 65.2 µM (inactive)

Just so you know, measured GI50 for CC(=O)NC1=C(NCc2ccc(Cl)cc2)C(=O)c2ccccc2C1=O came out at 13.3 µM (inactive)

Just so you know, measured GI50 for Nc1nc(Cl)cc(NCCCCCNc2cc(Cl)nc(N)n2)n1 came out at 29.2 µM (inactive)

Just so you know, measured GI50 for N[C@H](CCC(=O)NCP(=O)(O)O)C(=O)O came out at 5.33 µM (inactive)

###

System: SR
Assay: NCI tumour cell line growth inhibition, 48 h
Activity calls are given as the source filed them. Rule as the data show it: active = GI50 up to about 1.1 µM and inactive = higher.
Examples of compounds with documented GI50 follow.

Please review the following examples before continuing.
COMPOUND	GI50
COC(=O)c1ccccc1CC1Cc2ccc3c(c2C1=O)CCCC3 (stereo unspecified)	14 µM (inactive)
O=C(NC(CS)C(=O)O)c1c2ccccc2nc2ccccc12 (stereo unspecified)	> 100 µM (inactive)
COC(=O)c1c2cccccc-2c(Cc2c3cccccc-3c(C(=O)OC)c2O)c1O	> 100 µM (inactive)
COC1CC(OC2C(C)OC(OC3C(C)OC(OC4C(C)OC(O[C@H]5CC[C@@]6(C)C(=CC[C@]7(O)[C@@H]6C[C@@H](OC(=O)/C=C(\C)C(C)C)[C@@]6(C)[C@]7(O)CC[C@@]6(O)C(C)=O)C5)CC4OC)CC3OC)CC2OC)OC(C)C1O (stereo partly specified)	> 12.5 µM (inactive)
O=C(O)c1ccccc1.[Ag]	5.12 µM (inactive)

Just so you know, measured GI50 for Cc1cccc(NC(=O)c2cccc([N+](=O)[O-])c2O)c1C came out at 20.1 µM (inactive)

Just so you know, measured GI50 for CC(=O)Oc1ccc2cc(Oc3cc(Cl)c(Cl)cc3Cl)c(=O)oc2c1 came out at 19.8 µM (inactive)

Just so you know, measured GI50 for c1ccc2sc(SCN(C3CCCCC3)C3CCCCC3)nc2c1 came out at > 100 µM (inactive)

Just so you know, measured GI50 for COc1ccc(Nc2nc3c(N)cc(C(F)(F)F)cc3nc2-c2ccccc2)cc1OC came out at 92.7 µM (inactive)

Just so you know, measured GI50 for N#Cc1ccc(C2ON=C(c3ccccc3)N2C23CC4CC(CC(C4)C2)C3)cc1 (stereo unspecified) came out at 3.85 µM (inactive)

Just so you know, measured GI50 for COc1ccc(C(=O)O[C@@H]2CCN3CC[C@H](C)[C@H]23)cc1 came out at > 100 µM (inactive)

###

Test system: OVCAR-8
Test: NCI tumour cell line growth inhibition, 48 h
Calls of active or inactive are those of the source. No stated cut-off is given here; in the data, active = GI50 up to about 1.1 µM and inactive = higher.
Result category, one only: active, inactive

> print(dat)
                                   compound  measured.on  group.label
1  CCOC(=O)C1=C(C)NC(=O)NC1c1coc2cc(C)cc(C)c2c1=O (stereo unspecified)      OVCAR-8     inactive
2  CCCCCCCCCCCCN(CC(O)C(O)C(OC1OC(CO)C(O)C(O)C1O)C(O)CO)C(=O)CCCCCCCCCCC (stereo unspecified)      OVCAR-8     inactive

Asked: Please share the test call associated with CCCC1NC(C#N)(C#N)C(CCC)NC1(C#N)C#N (stereo unspecified) .
Given back: active

Asked: Please share the test call associated with CNC(=O)OCc1c(CO)nc(SC)n1C .
Given back: inactive

Asked: Please share the test call associated with CC(=O)N1CC(=O)NC1=S .
Given back: inactive

Asked: Please share the test call associated with COc1ccc(Nc2nc3c(N)cc(C(F)(F)F)cc3nc2-c2ccccc2)cc1OC .
Given back: inactive

Asked: Please share the test call associated with CC1Cc2c(N)nc(NN)nc2NC1=O (stereo unspecified) .
Given back: inactive

Asked: Please share the test call associated with CCN(CC)C(=S)SCC(=O)Nc1nc2c(s1)CCCC2 .
Given back: inactive

Asked: Please share the test call associated with CN(NC(=O)/C(=C/C=C/c1ccccc1)NC(=O)c1ccccc1)C1=C(Cl)C(=O)[N+](c2ccccc2)=CC1 .
Given back: inactive

Asked: Please share the test call associated with COc1ccc(-c2cc(-c3ccccc3)nc(N)c2-c2ccc3ccccc3c2)cc1 .
Given back: inactive

Asked: Please share the test call associated with Nc1ncnc2c1ncn2C1OC(CO)C(O)C1NS(=O)(=O)c1ccccc1 (stereo unspecified) .
Given back: inactive

Asked: Please share the test call associated with CCCCCc1cc2c(cc1O)CC[C@@H]1[C@@H]2CC[C@]2(C)[C@@H](O)CC[C@@H]12 .
Given back: inactive

Asked: Please share the test call associated with O=C1CCC(CCc2nc3ccccc3[nH]2)(c2ccccc2)C(=O)N1 (stereo unspecified) .
Given back: inactive

Asked: Please share the test call associated with CC(C)NC(=O)OCc1c(COC(=O)NC(C)C)c(-c2ccc[n+](COC(=O)CC(C)(C)C)c2)n2c1CCC2 .
Given back: inactive

###

Tested on: UO-31
Experiment: NCI tumour cell line growth inhibition, 48 h
Active and inactive are the calls of the source. Cut-off read from the data, not from the text of the source: active = GI50 up to about 1.1 µM and inactive = higher.
Examples of compounds with documented GI50 follow.

> print(dat)
                                   compound  experimental.value
1  COc1ccc2c(c1)-c1c(c3cc(OC)ccc3n1CCN(C)C)CC2  11.1 µM (inactive)

Now look at this one.
Hey, UO-31 data for Cc1cn(Cc2ccccc2CCl)c(=O)[nH]c1=O : GI50 came out at 11.6 µM (inactive)

###

System: RXF 631
Experiment: NCI tumour cell line growth inhibition, 48 h
Activity calls are given as the source filed them. Rule as the data show it: active = GI50 up to about 1.1 µM and inactive = higher.
MEASURED PROPERTY: GI50

> print(dat)
                                    compound   experimental.value
 1  C=C(COC(C)=O)CC(/C=C(\C)CC/C=C(\C)CO)OC(C)=O (stereo not given)  > 100 µM (inactive)
 2  CN(C)C(=O)CC(C(=O)O)c1c[nH]c2ccccc12 (stereo not given)  > 100 µM (inactive)
 3  NNC(=S)N/N=C/C(=C/Nc1ccccc1)[N+](=O)[O-]  > 100 µM (inactive)
 4        CCOC(=O)NC(=O)c1c[nH]c(=O)[nH]c1=O  > 100 µM (inactive)
 5  COc1cc2c(c(OC)c1)C(=O)C(=O)C(CC1(C)OCCCO1)=C2   17.4 µM (inactive)
 6                        CNC(=S)NC(=S)N(C)C  > 100 µM (inactive)
 7  CCOC(=O)C1N(S(=O)(=O)c2ccc(C)cc2)CCC12C(c1ccc(OC)c(OC)c1)=Nc1ccccc12 (stereo not given)  > 100 µM (inactive)
 8                  COc1cc2ccc(CC#N)cc2cc1OC  > 100 µM (inactive)
 9  CC(=O)N/C(=C\c1cccc([N+](=O)[O-])c1)c1nc2ccc3c(c2[nH]1)C(=O)c1ccccc1C3=O   32.6 µM (inactive)
10  CCOc1cc2c(cc1OC)c[n+](C)c1c3cc(OC)c(OC)cc3ccc21   22.6 µM (inactive)

Just so you know, measured GI50 for Cn1cc2ccccc2c1-c1nc(F)nc(OCC(=O)[C@H]2CCC3[C@@H]4CCC5=CC(=O)CC[C@]5(C)C4[C@@H](O)C[C@@]32C)n1 (stereo not given in full) came out at 2.33 µM (inactive)

Just so you know, measured GI50 for Cc1cccc(C2=NC(C)(C)C(C)(C)N=C2c2cccc(C)n2)n1 came out at > 100 µM (inactive)

Just so you know, measured GI50 for O=C1OCC2C1C1c3ccccc3C(O)c3ccccc3C21 (stereo not given) came out at > 100 µM (inactive)

Just so you know, measured GI50 for Cn1cnc([N+](=O)[O-])c1Sc1nccn1-c1cccc2ccccc12 came out at 22.3 µM (inactive)

Just so you know, measured GI50 for c1ccc(C(c2ccccc2)c2cccnc2)cc1 came out at > 100 µM (inactive)
